# Protocol notes: qHTS RealTime-Glo MT Cell Viability Assay in HEK293 cells - 40 hour (AID 1224874); further: on the % scale 0 is the no-effect control and ±100 the full control effect; nearly all actives have a fitted effect of over 50% in size
# Assay setup: RealTime-Glo luminescence; active compounds read low
Records with an inconclusive call do not appear.
Can you tell me max response for the items I'm about to list?
Answers are plain numbers, in %.

{"Compound": "NC(Cc1ccc(F)cc1)C(=O)O (stereo not drawn)", "Unit abbrev": "%", "Measured result": 2.65}
{"Compound": "CN1CCN(C2=Nc3ccccc3Oc3ccc(Cl)cc32)CC1", "Unit abbrev": "%", "Measured result": -25.8}
{"Compound": "COc1ccccc1N1CCN(CCCNc2cc(=O)n(C)c(=O)n2C)CC1", "Unit abbrev": "%", "Measured result": -21.2}
{"Compound": "CCCCNC(=S)NCCCC", "Unit abbrev": "%", "Measured result": -21.7}
{"Compound": "NC(=O)NS(=O)(=O)c1ccc(Cl)cc1", "Unit abbrev": "%", "Measured result": 0.44}
{"Compound": "ICCc1ccccc1", "Unit abbrev": "%", "Measured result": 22.5}
{"Compound": "c1ccc(CN(CC2=NCCN2)c2ccccc2)cc1", "Unit abbrev": "%", "Measured result": -19.9}
{"Compound": "CCCCCCCCCCCCCCCCOP(=O)([O-])OCC[N+](C)(C)C", "Unit abbrev": "%", "Measured result": -6.12}

// for each compound in input: emit max response
1. CCCCC(CC)COC(=O)COc1cc(Cl)c(Cl)cc1Cl (stereo not drawn)
2. CC(C)C1=CC2=CC[C@@H]3[C@](C)(CCC[C@@]3(C)C(=O)O)[C@H]2CC1
3. COc1nc(C)nc(NC(=O)NS(=O)(=O)c2ccccc2OCCCl)n1
4. CC1=C(CC(=O)O)c2cc(F)ccc2/C1=C\c1ccc(S(C)(=O)=O)cc1
5. CCOC(=O)CS
6. C=CCCC=C

Out:
1. -3.13
2. 3.7
3. 6.36
4. 8.4
5. -5.88
6. 4.67

---

# Test target: Thyrotropin receptor (Homo sapiens)
# Protocol notes: qHTS assay to identify small molecule antagonists of the thyroid stimulating hormone receptor (TSHR) signaling pathway (AID 1259385); further: on the % scale 0 is the no-effect control and ±100 the full control effect; nearly all actives have a fitted effect of over 20% in size
# Assay setup: TSHR-HEK293 cAMP HTRF, TSH-stimulated antagonist mode; series mostly up to 92.4 µM
Results filed as inconclusive are left out. The source made the active and inactive calls. Calls come from the whole dose curve.
Readout label: activity change, negative = inhibition

The following molecules have reported results that may help.
{"Molecule": "C[C@@H]1CN(c2c(F)c(N)c3c(=O)c(C(=O)O)cn(C4CC4)c3c2F)C[C@H](C)N1", "Test target": "Thyrotropin receptor (Homo sapiens)", "Measured result": "-0.774% [at 19 µM] (inactive)"}
{"Molecule": "C[C@@H]1CN(c2c(F)c(F)c3c(=O)c(C(=O)O)cn(C4CC4)c3c2F)C[C@H](C)N1", "Test target": "Thyrotropin receptor (Homo sapiens)", "Measured result": "-7.61% [at 19 µM] (inactive)"}
{"Molecule": "O=C(Cl)c1cccc([N+](=O)[O-])c1", "Test target": "Thyrotropin receptor (Homo sapiens)", "Measured result": "inactive"}
{"Molecule": "CC(C)(C)c1cccc(O)c1", "Test target": "Thyrotropin receptor (Homo sapiens)", "Measured result": "inactive"}
{"Molecule": "NC/C=C/C(=O)O", "Test target": "Thyrotropin receptor (Homo sapiens)", "Measured result": "inactive"}

Let us examine a further case.
Hey, Thyrotropin receptor (Homo sapiens) data for CCCC1CCC(=O)O1 (stereo unspecified) : activity change, negative = inhibition came out at inactive

---

Can you tell me Potency for the items I'm about to list?
# Test target: Progesterone receptor (Homo sapiens) (UniProt P06401)
# Sequence (P06401 whole entry, looked up): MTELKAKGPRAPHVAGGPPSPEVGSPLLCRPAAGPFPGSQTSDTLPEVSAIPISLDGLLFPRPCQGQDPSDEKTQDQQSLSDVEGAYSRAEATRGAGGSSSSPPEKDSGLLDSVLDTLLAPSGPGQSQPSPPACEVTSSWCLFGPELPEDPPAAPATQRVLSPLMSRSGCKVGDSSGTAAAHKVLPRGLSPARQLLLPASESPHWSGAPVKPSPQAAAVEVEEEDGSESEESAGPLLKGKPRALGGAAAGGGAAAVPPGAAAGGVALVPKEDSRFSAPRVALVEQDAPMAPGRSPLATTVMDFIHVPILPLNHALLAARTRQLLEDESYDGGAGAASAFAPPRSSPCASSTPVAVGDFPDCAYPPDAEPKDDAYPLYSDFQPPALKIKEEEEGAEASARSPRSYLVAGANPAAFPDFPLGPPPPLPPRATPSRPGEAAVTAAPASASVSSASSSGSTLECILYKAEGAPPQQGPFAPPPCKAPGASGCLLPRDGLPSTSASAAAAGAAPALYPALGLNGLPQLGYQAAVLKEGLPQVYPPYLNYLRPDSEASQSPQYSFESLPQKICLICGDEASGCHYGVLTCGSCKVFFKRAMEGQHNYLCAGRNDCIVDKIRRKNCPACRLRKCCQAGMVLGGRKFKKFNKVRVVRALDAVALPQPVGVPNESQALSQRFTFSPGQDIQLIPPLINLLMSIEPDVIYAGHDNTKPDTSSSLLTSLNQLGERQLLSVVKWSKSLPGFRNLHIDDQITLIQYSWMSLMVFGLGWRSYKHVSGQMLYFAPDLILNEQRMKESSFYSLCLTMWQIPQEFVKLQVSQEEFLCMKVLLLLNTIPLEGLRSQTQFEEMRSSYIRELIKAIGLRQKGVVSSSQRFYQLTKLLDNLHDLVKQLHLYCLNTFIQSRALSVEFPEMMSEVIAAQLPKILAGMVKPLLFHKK
# Protocol notes: qHTS assay to identify small molecule agonists of the progesterone receptor (PR) signaling pathway (AID 1346784); further: potency means the concentration at half of the fitted maximal effect; nearly all actives have a fitted effect of over 30% in size
# Assay setup: PR-UAS-bla HEK293T, beta-lactamase FRET ratio, 16 h; series mostly up to 92.4 µM
Records with an inconclusive call do not appear. Active and inactive are the calls of the source. Calls come from the whole dose curve.

{"Structure as smiles": "CCOC(=O)CS", "Potency": "3.15 µM (active)"}
{"Structure as smiles": "C=CCCC=C", "Potency": "19.9 µM (active)"}
{"Structure as smiles": "C[C@]12CCC(=O)C=C1CC[C@@H]1[C@@H]2CC[C@@]2(C)[C@H]1CC[C@]2(O)C(=O)CO", "Potency": "8.41 µM (active)"}

Let us examine a further case.
The value of Potency measured for the compound `O=C(CC(=O)C(F)(F)F)c1ccccc1` turned out to be 8.76 µM (active)

---

# Protocol notes: qHTS assay to identify small molecule agonists of the NFkB signaling pathway - cell viability counter screen (AID 1159515); further: on the % scale 0 is the no-effect control and ±100 the full control effect; nearly all actives have a fitted effect of over 55% in size
# Assay setup: NFkB-bla ME-180 viability, CellTiter-Glo luminescence, 5 h; series mostly up to 61 µM
Records with an inconclusive call do not appear. Activity calls are given as the source filed them. The call rests on the fitted dose curve.
Readout label: outcome

The following compounds have reported results that may help.
{"Structure as smiles": "C=Cc1ccccc1", "Measured result": "inactive"}
{"Structure as smiles": "CCCCCCCCCC/C=C/C#N", "Measured result": "inactive"}
{"Structure as smiles": "NC/C=C/C(=O)O", "Measured result": "inactive"}
{"Structure as smiles": "CO[Si](C)(C)OC", "Measured result": "inactive"}
{"Structure as smiles": "FC(F)(F)C(Cl)(Cl)Cl", "Measured result": "inactive"}

// for each compound in input: emit outcome
1. Oc1ccccc1F
2. CO[C@@]1(NC(=O)CSCC#N)C(=O)N2C(C(=O)O)=C(CSc3nnnn3C)CS[C@@H]21
3. Cc1cc2c(s1)Nc1ccccc1N=C2N1CCN(C)CC1

Out:
["inactive", "inactive", "inactive"]

---

# Protocol notes: qHTS RealTime-Glo MT Cell Viability Assay in HEK293 cells - 8 hour (AID 1224887); further: top concentration of the series differs between compounds; on the % scale 0 is the no-effect control and ±100 the full control effect; nearly all actives have a fitted effect of over 50% in size
# Assay setup: RealTime-Glo luminescence; series mostly up to 76.8 µM
Records with an inconclusive call do not appear. Calls of active or inactive are those of the source. Calls come from the whole dose curve; as a rule, active = well fitted cell-killing curve with a large enough effect in the repeat runs; inconclusive = weak or mixed curves, or effect the other way; inactive = flat fitted curve, though single readings scatter.
Just give me one of these, please: True for active, False for inactive

These recorded examples may help you get a feel for the data.
{"Compound": "CCOC(=O)C(Br)c1ccccc1 (stereo not drawn)", "Class name": "False"}
{"Compound": "CN1CCN(N)CC1", "Class name": "False"}
{"Compound": "CN1CCN(c2c(F)cc3c(=O)c(C(=O)O)cn4c3c2SCC4)CC1", "Class name": "False"}
{"Compound": "NC(=O)Cc1cccc(C(=O)c2ccccc2)c1N", "Class name": "False"}

Now let's try a different one.
In: What outcome does the record of this test show for `O=C(CCCl)NCc1ccccc1` ?
Out: False

---

# Protocol notes: qHTS assay to identify small molecule antagonists of the thyroid receptor (TR) signaling pathway - cell viability counter screen (AID 743064); further: on the % scale 0 is the no-effect control and ±100 the full control effect; nearly all actives have a fitted effect of over 50% in size
# Assay setup: GH3.TRE-Luc viability, CellTiter-Fluor, 24 h; series mostly up to 70.3 µM
Records with an inconclusive call do not appear. Calls of active or inactive are those of the source. Calls follow the shape of the dose curve; as a rule, active = well fitted cell-killing curve with a large enough effect in the repeat runs; inconclusive = weak or mixed curves, or effect the other way; inactive = no such curve, though single readings can be large or run the other way.
Just give me one of these, please: Yes (active), No (inactive)

These recorded examples may help you get a feel for the data.
{"Compound": "CCOC(=O)C1CC(=O)C(=C(O)C2CC2)C(=O)C1 (configuration not stated)", "Class name": "No"}
{"Compound": "CCOc1ccccc1N", "Class name": "No"}
{"Compound": "Cc1cccc(C)c1NC(=O)CN1CCCCCC1", "Class name": "No"}

In: What outcome does the record of this test show for `O=C1N(c2ccccc2)c2ccccc2C1(Cc1ccncc1)Cc1ccncc1` ?
Out: No

In: What outcome does the record of this test show for `O=C(O)[C@@H]1CSCN1` ?
Out: No

In: What outcome does the record of this test show for `Cc1ccsc1C(=CCCN1CCC[C@@H](C(=O)O)C1)c1sccc1C` ?
Out: No

---

# Protocol notes: qHTS assay to identify small molecule agonists of the TGF-beta/Smad signaling pathway - cell viability counter screen (AID 1346829); further: top concentration of the series differs between compounds; on the % scale 0 is the no-effect control and ±100 the full control effect; nearly all actives have a fitted effect of over 45% in size
# Assay setup: SBE-bla HEK293T viability, CellTiter-Glo luminescence, 5 h; series mostly up to 76.8 µM
Results filed as inconclusive are left out. Calls of active or inactive are those of the source. Calls follow the shape of the dose curve; as a rule, active = well fitted cell-killing curve with a large enough effect in the repeat runs; inconclusive = weak or mixed curves, or effect the other way; inactive = flat fitted curve, though single readings scatter.
Readout label: activity change, negative = cytotoxicity

The following compounds have reported results that may help.
{"Compound": "FC(F)(F)c1ccccc1", "Measured result": "inactive"}
{"Compound": "COc1cc(C)ccc1C(C)C", "Measured result": "inactive"}
{"Compound": "COc1cc2c(cc1N)oc1ccccc12", "Measured result": "inactive"}
{"Compound": "Cc1cn([C@@H]2O[C@H](CO)[C@@H](O)[C@@H]2F)c(=O)[nH]c1=O", "Measured result": "inactive"}
{"Compound": "C[C@]12C(=O)OC(=O)[C@H]1[C@H]1C=C[C@@H]2C1", "Measured result": "inactive"}
{"Compound": "CCN1CC(CCN2CCOCC2)C(c2ccccc2)(c2ccccc2)C1=O (stereo not drawn)", "Measured result": "inactive"}
{"Compound": "CC(C)C(=O)OC/C=C/c1ccccc1", "Measured result": "inactive"}
{"Compound": "CC(C)(CO)[C@@H](O)C(=O)NCCC(=O)O", "Measured result": "inactive"}

// for each compound in input: emit activity change, negative = cytotoxicity
1. CN1C(=O)CC(c2ccccc2)C1=O (stereo not drawn)
2. FC(F)(F)C(F)(F)C(F)(F)C(F)(F)C(F)(F)C(F)(F)C(F)(F)C(F)(F)Br

Out:
1: inactive; 2: inactive

// for each compound in input: emit activity change, negative = cytotoxicity
1. Cc1cccc(C)c1NC(=O)CN1CCCCCC1
2. CC(=O)OC1C2(C)CCC(C2)C1(C)C (stereo not drawn)
3. Cc1cc2nc(N)sc2cc1C

Out:
["inactive", "inactive", "inactive"]
